assay: Growth inhibition of human MCF7 cells at 30 uM after 72 hrs by MTT assay; type: functional; details: MCF7, 72 h, read-out: GI
Each entry gets f if its inhibition of growth at 30 µM stays under 60%, and t if its inhibition of growth at 30 µM is 60% or above.

CC(=O)O[C@H]1CC[C@@]2(C)C(=CC[C@@H]3[C@@H]2CC[C@]2(C)C(c4nn(-c5ccc([N+](=O)[O-])cc5)cc4C=O)=CC[C@@H]32)C1; f
C[C@]12CC[C@H](O)CC1=CC[C@@H]1[C@@H]2CC[C@]2(C)C(c3nn(-c4ccc(Cl)cc4)cc3C=O)=CC[C@@H]12; f
Cc1ccc(-n2cc(CO)c(C3=CC[C@H]4[C@@H]5CC=C6C[C@@H](O)CC[C@]6(C)[C@H]5CC[C@]34C)n2)cc1; t
CC(=O)O[C@H]1CC[C@@]2(C)C(=CC[C@@H]3[C@@H]2CC[C@]2(C)C(c4nn(C)cc4C#N)=CC[C@@H]32)C1; f
CC(=O)O[C@H]1CC[C@@]2(C)C(=CC[C@@H]3[C@@H]2CC[C@]2(C)C(c4nn(-c5ccc(Cl)cc5)cc4C=O)=CC[C@@H]32)C1; t

Identify whether the reported inhibition of growth at 30 µM of the following compound is 60% or greater: "C[C@]12CC[C@H](O)CC1=CC[C@@H]1[C@@H]2CC[C@]2(C)C(c3nn(-c4ccc(C#N)cc4)cc3C=O)=CC[C@@H]12"
t

---

Can you tell me IC50 for the items I'm about to list?
assay: Growth inhibition of human MDA-MB-361 cells after 72 hrs by MTT assay; type: functional, cell-based; settings: MDA-MB-361, 72 h

C[C@]12CC[C@H](O)CC1=CC[C@@H]1[C@@H]2CC[C@]2(C)C(c3nn(-c4ccc(Cl)cc4)cc3CO)=CC[C@@H]12; 2.5 µM

Please state, for each entry, its recorded IC50.
1. C[C@]12CC[C@H](O)CC1=CC[C@@H]1[C@@H]2CC[C@]2(C)C(c3nn(-c4ccc(Br)cc4)cc3CO)=CC[C@@H]12
2. C[C@]12CC[C@H](O)CC1=CC[C@@H]1[C@@H]2CC[C@]2(C)C(c3cccnc3)=CC[C@@H]12 [ABIRATERONE]
3. C[C@]12CC[C@H](O)CC1=CC[C@@H]1[C@@H]2CC[C@]2(C)C(c3nn(-c4ccccc4)cc3C=O)=CC[C@@H]12
4. C[C@]12CC[C@H](O)CC1=CC[C@@H]1[C@@H]2CC[C@]2(C)C(c3nn(-c4ccc(C#N)cc4)cc3CO)=CC[C@@H]12
5. C[C@]12CC[C@H](O)CC1=CC[C@@H]1[C@@H]2CC[C@]2(C)C(c3nn(-c4ccccc4)cc3CO)=CC[C@@H]12
6. COc1ccc(-n2cc(C=O)c(C3=CC[C@H]4[C@@H]5CC=C6C[C@@H](O)CC[C@]6(C)[C@H]5CC[C@]34C)n2)cc1
7. C[C@]12CC[C@H](O)CC1=CC[C@@H]1[C@@H]2CC[C@]2(C)C(c3nn(-c4ccc([N+](=O)[O-])cc4)cc3CO)=CC[C@@H]12

["2 µM", "20.4 µM", "3.8 µM", "1.6 µM", "2.1 µM", "3.3 µM", "2.7 µM"]
